B1: HDV Ribozyme (parent)
chain: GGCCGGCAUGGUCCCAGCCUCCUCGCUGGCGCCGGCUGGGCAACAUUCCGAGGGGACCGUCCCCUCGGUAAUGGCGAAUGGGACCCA

Variants of: B1
Assay: self-cleavage, relative activity (ratio to wild type); higher = more cleavage; co-transcriptional
outcome.measure: self-cleavage
Returns: the value as a bare number; no unit string appended.

U79G C86A : 0.675

Can you look up the measured self-cleavage of G40A G74C for me?
0.485

Can you look up the measured self-cleavage of G52U A56U for me?
0.787

Can you look up the measured self-cleavage of A51G C61A for me?
0.954
